Let's look at some compounds and their measured growth.
System: ACHN renal
measurementDescription: NCI-60 one-dose screen, 48 h (100 = growth as untreated, 0 = no growth, -100 = all killed)
runParameters: 10 µM unless noted
The panel holds about 83,000 compounds, 20% with a hit somewhere; the sample as a whole holds those more often.
recordedEndpoint: growth (%)

compound | targetDesc | recordedEndpoint | observedResult
Cc1cn(-c2cc(NC(=O)c3cncc(C#Cc4cnc(N)c5ncccc45)c3)cc(C(F)(F)F)c2)cn1 | ACHN renal | growth | 73.4
c1ccc2cc(C[n+]3ccn(CCCCCCCCCCn4cc[n+](Cc5ccc6ccccc6c5)c4)c3)ccc2c1 | ACHN renal | growth | 52.2
COc1cc2c(cc1OC)C(C)N(S(N)(=O)=O)CC2 (centres undefined) | ACHN renal | growth | 102
Cc1cc(=O)n(C(=O)Nc2ccccc2Cl)c2cc(O)ccc12 | ACHN renal | growth | 100
